# measured.target: GABA-A receptor; anion channel (Rattus norvegicus) (UniProt O09028+P15431+P18506+P18508+P19969+P20236+P23574+P23576+P28471+P28473+P30191+P62813+P63079+P63138+Q91ZM7+Q9ES14)
# protocol.summary: Percent inhibition of [3H]diazepam binding to rat brain GABA-A benzodiazepine receptor at 100 uM
Hi, to clarify the labels: YES covers inhibition from 70% upward, NO covers anything below 70%.

> print(dat)
                   molecule.smiles  assigned.category
1  CN(C)c1ncnc2c1ncn2C1Cc2ccccc2C1                 NO
2         c1ccc(Cn2cnc3cncnc32)cc1                 NO
3       OCCNc1ncnc2c1ncn2Cc1ccccc1                YES
4      CN(C)c1ncnc2c1ncn2-c1ccccc1                 NO

---

# System: Rattus norvegicus
# protocol.summary: Effect on conflict responding in Long-Evans rats when 25 mg/kg was administered by oral gavage in a modified Geller-Seifter conflict schedule.
# Format: functional
Hi, to clarify the labels: condition met covers Change in conflict from 10% upward, condition not met covers anything below 10%.

> print(dat)
                                    molecule    measured.target  assigned.category
 1  CNC1=Nc2ccc(Cl)cc2C(c2ccccc2)=[N+]([O-])C1 [CHLORDIAZEPOXIDE]  Rattus norvegicus      condition met
 2                  CSc1ncnc2c1ncn2Cc1ccccc1  Rattus norvegicus      condition met
 3           CN(C)c1ncnc2c1ncn2Cc1cccc(CO)c1  Rattus norvegicus  condition not met
 4          c1ccc(Cn2cnc3c(N4CCC4)ncnc32)cc1  Rattus norvegicus  condition not met
 5  CN(C)c1ncnc2c1ncn2Cc1cccc(OC(=O)C(C)(C)C)c1  Rattus norvegicus  condition not met
 6                  CNc1ncnc2c1ncn2Cc1ccccc1  Rattus norvegicus  condition not met
 7            CN(C)c1ncnc2c1ncn2Cc1cccc(O)c1  Rattus norvegicus  condition not met
 8                  COc1ncnc2c1ncn2Cc1ccccc1  Rattus norvegicus      condition met
 9    CC(=O)Oc1cccc(Cn2cnc3c(N(C)C)ncnc32)c1  Rattus norvegicus  condition not met
10     C[C@@H](c1ccccc1)n1cnc2c(N(C)C)ncnc21  Rattus norvegicus  condition not met
11               CN(C)c1ncnc2c1ncn2Cc1ccccc1  Rattus norvegicus  condition not met

---

# measured.target: GABA-A receptor; anion channel (Rattus norvegicus) (UniProt O09028+P15431+P18506+P18508+P19969+P20236+P23574+P23576+P28471+P28473+P30191+P62813+P63079+P63138+Q91ZM7+Q9ES14)
# protocol.summary: The percent inhibition of [3H]diazepam binding to the benzodiazepine receptor of rat brain elicited by 100 uM of compound
Hi, to clarify the labels: satisfied covers inhibition from 60% upward, not satisfied covers anything below 60%.

> print(dat)
                             molecule.smiles  assigned.category
 1         COc1ccc(Cn2cnc3c(N(C)C)ncnc32)cc1      not satisfied
 2   CN(C)c1ncnc2c1ncn2Cc1ccc(OCc2ccccc2)cc1      not satisfied
 3           CN(C)c1ncnc2c1ncn2Cc1cccc(Br)c1          satisfied
 4         COc1cccc(Cn2cnc3c(N(C)C)ncnc32)c1          satisfied
 5            CN(C)c1ncnc2c1ncn2Cc1ccc(N)cc1          satisfied
 6                     CN(C)c1ncnc2nc[nH]c12      not satisfied
 7          CN(C)c1ncnc2c1ncn2Cc1cccc(C#N)c1          satisfied
 8  CN(C)c1ncnc2c1ncn2Cc1ccc([N+](=O)[O-])cc1      not satisfied
 9      C[C@H](c1ccccc1)n1cnc2c(N(C)C)ncnc21      not satisfied
10    CC(=O)Nc1ccc(Cn2cnc3c(N(C)C)ncnc32)cc1      not satisfied
11            Cc1ccccc1Cn1cnc2c(N(C)C)ncnc21          satisfied
12  CN(C)c1ncnc2c1ncn2Cc1cccc([N+](=O)[O-])c1      not satisfied
